Data credit: PubChem BioAssay (Tox21)

measurement-description: qHTS assay to test for compound auto fluorescence at 460 nm (blue) in HepG2 cell free culture (AID 720685)
measurement-setup: Cell-free culture medium, blue autofluorescence 405/460 nm; series mostly up to 46 µM
Description: U.S. Tox21 Program National Center for Advancing Translational Sciences [NCATS] NIH Chemical Genomics Center [NCGC] U.S. Environmental Protection Agency [EPA] National Institutes of Environmental Health Sciences [NIEHS] National Toxicology Program [NTP] U.S. Food and Drug Administration [FDA] Tox21 Assay Overview: Compound auto fluorescence often interferes with screening of the compound library against various biological targets and signaling pathways. […] This assay includes the blue fluorescence data. […]
The source made the active and inactive calls. The call rests on the fitted dose curve; in most records, active means well fitted curve in the direction sought with a large enough effect in the repeat runs; inconclusive means weak or mixed curves; inactive means flat fitted curve, though single readings scatter.

# compound, outcome
records = [
    ("CNCC(O)c1ccc(OC(=O)C(C)(C)C)c(OC(=O)C(C)(C)C)c1 (stereo not drawn)", "inactive"),
    ("COc1cc(C)c(/C=C/C(C)=C/C=C/C(C)=C/C(=O)O)c(C)c1C", "inactive"),
    ("CCCCCCCN(CC)CCCC(O)c1ccc(NS(C)(=O)=O)cc1 (stereo not drawn)", "inactive"),
    ("O=S(=O)(O)Oc1ccc(C(c2ccc(OS(=O)(=O)O)cc2)c2ccccn2)cc1", "inactive"),
    ("CC(C)Cc1ccc([C@@H](C)C(=O)NS(C)(=O)=O)cc1", "inactive"),
    ("O=c1oc2cc(O)ccc2s1", "inactive"),
    ("CCOC(=O)C1=C[C@@H](OC(CC)CC)[C@H](NC(C)=O)[C@@H](N)C1", "inactive"),
    ("CCOC(=O)Cc1cccc(-c2cc(CCCCCCc3ccc(O[C@H]4O[C@H](COC(C)=O)[C@@H](OC(C)=O)[C@H](OC(C)=O)[C@@H]4OC(C)=O)c(-c4cccc(CC(=O)OCC)c4)c3)ccc2O[C@H]2O[C@H](COC(C)=O)[C@@H](OC(C)=O)[C@H](OC(C)=O)[C@@H]2OC(C)=O)c1", "inactive"),
]
